Answer each item with its documented IC50.
Test system: PD-1/PD-L1 (Homo sapiens (Human))
Test name: PD-1/PD-L1 biochemical protein-protein interaction assay (ALPHA)
Experimental setup: 0.3 nM His tagged PD-L1, 2.5 nM biotinylated Fc-PD-1, 60 minutes at 25° C., read-out: IC50 PD-L1-PD1
One number for each entry, in pM.

- Compound: "COc1nc(-c2cccc(-c3cccc(-c4cnc5c(CN6CC7(C6)CN(C(C)=O)C7)cn(C)c5n4)c3Cl)c2Cl)cnc1CNC[C@H]1CCC(=O)N1"
  Reported value: 64
- Compound: "COc1nc(-c2cccc(-c3cccc(-c4cnc(CN[C@H]5C[C@H](CO)C5)c(OC)n4)c3Cl)c2Cl)cnc1CN[C@H]1C[C@H](CO)C1"
  Reported value: 270
- Compound: "CNc1nc(-c2cccc(-c3cccc(-c4cnc(CNC[C@@H]5CCC(=O)N5)c(NC)n4)c3Cl)c2Cl)cnc1CNC[C@@H]1CCC(=O)N1"
  Reported value: 360
- Compound: "COc1nc(-c2cccc(-c3cccc(-c4cnc(CNCC(C)(C)O)c(OC)n4)c3Cl)c2Cl)cnc1CNCC(C)(C)O"
  Reported value: 289
- Compound: "COc1nc(-c2cccc(-c3cccc(-c4cnc(CN[C@H]5C[C@](O)(CF)C5)c(OC)n4)c3Cl)c2Cl)cnc1CNC[C@@H]1CCC(=O)N1"
  Reported value: 84
- Compound: "COc1nc(-c2cccc(-c3cccc(-c4cnc(CN[C@H]5C[C@H](OC)C5)c(OC)n4)c3Cl)c2Cl)cnc1CNC[C@@H]1CCC(=O)N1"
  Reported value: 244
- Compound: "COc1nc(-c2cccc(-c3cccc(-c4cnc(CNC[C@@H]5CCC(=O)N5)c(OC)n4)c3Cl)c2Cl)ccc1CN[C@@H]1CCOC1"
  Reported value: 227
- Compound: "CNC(=O)NC1CN(Cc2ncc(-c3cccc(-c4cccc(-c5cnc(CNC[C@@H]6CCC(=O)N6)c(OC)n5)c4Cl)c3Cl)nc2OC)C1"
  Reported value: 90
- Compound: "COc1nc(-c2cccc(-c3cccc(-c4cnc(CN5CC[C@H](O)C5)c(OC)n4)c3Cl)c2Cl)cnc1CN"
  Reported value: 290
- Compound: "COc1nc(-c2cccc(-c3cccc(-c4cnc(CN5CC6(C5)CC(O)(C(F)(F)F)C6)c(OC)n4)c3Cl)c2Cl)cnc1CNC[C@@H]1CCC(=O)N1"
  Reported value: 337

Go through the list and state IC50 for each entry.
1. COc1nc(-c2cccc(-c3cccc(-c4cnc(CNC5CC(C)(O)C5)c(OC)n4)c3Cl)c2Cl)cnc1CN (stereo not drawn)
2. COc1nc(-c2cccc(-c3cccc(-c4cnc(CN5CCCC(C(F)F)C5)c(OC)n4)c3Cl)c2Cl)cnc1CNC[C@@H]1CCC(=O)N1 (stereo partly drawn)

1: 151; 2: 2430

----------
Test system: PD-1/PD-L1 (Homo sapiens (Human), UniProt Q9NZQ7)
Sequence (Q9NZQ7 19-238): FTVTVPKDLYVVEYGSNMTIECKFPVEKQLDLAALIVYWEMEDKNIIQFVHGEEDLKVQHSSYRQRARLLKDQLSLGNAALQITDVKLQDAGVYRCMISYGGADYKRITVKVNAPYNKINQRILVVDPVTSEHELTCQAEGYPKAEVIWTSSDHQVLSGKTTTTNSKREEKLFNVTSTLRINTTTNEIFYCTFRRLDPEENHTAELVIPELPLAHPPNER
Test name: PD-1/PD-L1 biochemical protein-protein interaction assay (ALPHA)
Experimental setup: 0.3 nM His tagged PD-L1, 2.5 nM biotinylated Fc-PD-1, 60 minutes at 25° C., read-out: IC50 PD-L1-PD1
Output 1 (yes) for records whose IC50 is lower than 100 pM, 0 (no) for records at or above 100 pM.

Illustrative cases are given below, each with its answer.
- Compound: "COc1nc(-c2cccc(-c3cccc(-c4cnc(CN5CCC[C@H]5CO)c(OC)n4)c3Cl)c2Cl)cnc1CNC[C@@H]1CCC(=O)N1 [compound 24]"
  Answer label: "0 (no)"
- Compound: "COc1nc(-c2cccc(-c3cccc(-c4cnc(CN5CC(S(C)(=O)=O)C5)c(OC)n4)c3Cl)c2Cl)cnc1CNC[C@@H]1CCC(=O)N1 [compound 574]"
  Answer label: "0 (no)"
- Compound: "COc1nc(-c2cccc(-c3cccc(-c4cnc(CNC[C@@H]5CCC(=O)N5)c(OC)n4)c3Cl)c2Cl)cnc1CNCC1CCNC(=O)C1 (stereo partly drawn) [compound 659]"
  Answer label: "0 (no)"
- Compound: "CNc1nc(-c2cccc(-c3cccc(-c4cnc(CN(C)C[C@@H]5CCC(=O)N5)c(NC)n4)c3Cl)c2Cl)cnc1CN(C)C[C@@H]1CCC(=O)N1 [compound 319]"
  Answer label: "0 (no)"
- Compound: "COc1nc(-c2cccc(-c3cccc(-c4cnc(CNC[C@@H]5CCC(=O)N5)c(OC)n4)c3Cl)c2Cl)cnc1CNCC[C@H]1CNC(=O)C1 [compound 541]"
  Answer label: "1 (yes)"

Lab note: next compound to report on.
Please indicate whether the reported IC50 of COc1nc(-c2cccc(-c3cccc(-c4cnc(CN5CC[C@@H](CO)C5)c(OC)n4)c3F)c2Cl)ccc1CN1CC[C@@H](CO)C1 [compound 616] is strictly below 100 pM.
1 (yes)

----------
Answer each item with its documented log10 IC50.
Test system: PD-1/PD-L1 (Homo sapiens (Human), UniProt Q9NZQ7)
Test name: PD-1/PD-L1 biochemical protein-protein interaction assay (ALPHA)
Experimental setup: 0.3 nM His tagged PD-L1, 2.5 nM biotinylated Fc-PD-1, 60 minutes at 25° C., read-out: IC50 PD-L1-PD1
Remember, log10 of IC50, in nM.

- Compound: "CNc1nc(-c2cccc(-c3cccc(-c4cnc(CN5CC(F)C5)c(NC)n4)c3Cl)c2Cl)cnc1CN1CC(F)C1 [compound 69]"
  Reported value: 0.42
- Compound: "COc1nc(-c2cccc(-c3cccc(-c4cnc(CN)c(OC)n4)c3Cl)c2Cl)cnc1CN [compound 135]"
  Reported value: -0.13
- Compound: "COc1nc(-c2cccc(-c3cccc(-c4cnc(CN5CC[C@@H](O)[C@H](F)C5)c(OC)n4)c3Cl)c2Cl)cnc1CNC[C@@H]1CCC(=O)N1 [compound 279]"
  Reported value: -0.46
- Compound: "COc1nc(-c2cccc(-c3cccc(-c4cnc(CNCC5(O)COC5)c(OC)n4)c3Cl)c2Cl)cnc1CNCC1(O)COC1 [compound 588]"
  Reported value: -0.77
- Compound: "COc1nc(-c2cccc(-c3cccc(-c4cnc(CN5CC[C@]6(O)C[C@@H]6C5)c(OC)n4)c3Cl)c2Cl)cnc1CNC[C@@H]1CCC(=O)N1 [compound 482]"
  Reported value: -0.97

# evaluate next
Return reported log10 IC50. Input compound: CCN(CCc1cn[nH]c1)Cc1ncc(-c2cccc(-c3cccc(-c4cnc(CNC[C@@H]5CCC(=O)N5)c(OC)n4)c3Cl)c2Cl)nc1OC [compound 48]
-0.09

----------
Test system: PD-1/PD-L1 (Homo sapiens (Human), UniProt Q9NZQ7)
Test name: PD-1/PD-L1 biochemical protein-protein interaction assay (ALPHA)
Experimental setup: 0.3 nM His tagged PD-L1, 2.5 nM biotinylated Fc-PD-1, 60 minutes at 25° C., read-out: IC50 PD-L1-PD1
Endpoint label: pIC50
One number for each entry, as −log10 of the molar value.

Example results:
- Molecule: "COc1nc(-c2cccc(-c3cccc(-c4cnc(CN5CCC(C)(CO)C5)c(OC)n4)c3Cl)c2Cl)cnc1CNC[C@@H]1CCC(=O)N1 (stereo partly drawn) [compound 442]"
  pIC50: 9.84
- Molecule: "COc1nc(-c2cccc(-c3cccc(-c4cnc(CNC[C@@H]5CC(C)C(=O)N5)c(OC)n4)c3Cl)c2Cl)cnc1CNC[C@@H]1CCC(=O)N1 (stereo partly drawn) [compound 262]"
  pIC50: 9.33
- Molecule: "COc1nc(-c2cccc(-c3cccc(-c4cnc(CN5CCC6(CCOC6=O)C5)c(OC)n4)c3Cl)c2Cl)cnc1CNC[C@@H]1CCC(=O)N1 (stereo partly drawn) [compound 232]"
  pIC50: 9.51
- Molecule: "COc1nc(-c2cccc(-c3cccc(-c4cnc(CNC[C@@H]5CCC(=O)N5)c(OC)n4)c3Cl)c2Cl)ccc1CN1CC(O)C1 [compound 164]"
  pIC50: 9.91
- Molecule: "COc1nc(-c2cccc(-c3cccc(-c4cnc(CN5CCC(C)(OC)C5)c(OC)n4)c3Cl)c2Cl)cnc1CNC[C@@H]1CCC(=O)N1 (stereo partly drawn) [compound 443]"
  pIC50: 9.61
- Molecule: "COc1nc(-c2cccc(-c3cccc(-c4cnc(CNC[C@@H]5CCC(=O)N5)c(OC)n4)c3Cl)c2Cl)cnc1CNCC[C@@H]1CNC(=O)C1 [compound 539]"
  pIC50: 9.77
- Molecule: "COc1nc(-c2cccc(-c3cccc(-c4cnc(CNCC5(O)CCC5)c(OC)n4)c3Cl)c2Cl)cnc1CNC[C@@H]1CCC(=O)N1 [compound 486]"
  pIC50: 9.54
- Molecule: "COc1nc(-c2cccc(-c3cccc(-c4cnc(CN5CC(O)(C6CC6)C5)c(OC)n4)c3Cl)c2Cl)cnc1CN1CC(O)(C2CC2)C1 [compound 548]"
  pIC50: 9.18
- Molecule: "COc1nc(-c2cccc(-c3cccc(-c4cnc(CNCC56CC(O)(C5)C6)c(OC)n4)c3Cl)c2Cl)cnc1CNC[C@@H]1CCC(=O)N1 [compound 545]"
  pIC50: 9.67
- Molecule: "COc1nc(-c2cccc(-c3cccc(-c4cnc(CN5C[C@H](O)C[C@@H](F)C5)c(OC)n4)c3Cl)c2Cl)cnc1CNC[C@@H]1CCC(=O)N1 [compound 264]"
  pIC50: 9.39

Go through the list and state pIC50 for each entry.
1. COc1nc(-c2cccc(-c3cccc(-c4cnc(CNC[C@@H]5CCC(=O)N5)c(OC)n4)c3Cl)c2Cl)cnc1CNC[C@H]1CCN1 [compound 254]
2. COc1nc(-c2cccc(-c3cccc(-c4cnc(CNCCOC(N)=O)c(OC)n4)c3Cl)c2Cl)cnc1CNCCOC(N)=O [compound 454]

1. 9.96
2. 10.19
